Below is a list of entries, each paired with its recorded glycan array binding signal (z-score) value.
biological target: GlcNAc(a1-4)Gal(b1-4)GlcNAc(b1-3)Gal(b1-4)[Fuc(a1-3)]GlcNAc(b1-3)Gal(b1-4)[Fuc(a1-3)]GlcNAc; assay: glycan array binding signal (z-score within array); higher = stronger binding; conditions: glycan notation: IUPAC condensed, linker removed
About 410 targets per protein were measured; listed, in parts, are those with the strongest signals and a random draw of the rest.

[[record]]
binder = "SSP1 (Sclerotinia sclerotiorum), XP_001584968 (protein) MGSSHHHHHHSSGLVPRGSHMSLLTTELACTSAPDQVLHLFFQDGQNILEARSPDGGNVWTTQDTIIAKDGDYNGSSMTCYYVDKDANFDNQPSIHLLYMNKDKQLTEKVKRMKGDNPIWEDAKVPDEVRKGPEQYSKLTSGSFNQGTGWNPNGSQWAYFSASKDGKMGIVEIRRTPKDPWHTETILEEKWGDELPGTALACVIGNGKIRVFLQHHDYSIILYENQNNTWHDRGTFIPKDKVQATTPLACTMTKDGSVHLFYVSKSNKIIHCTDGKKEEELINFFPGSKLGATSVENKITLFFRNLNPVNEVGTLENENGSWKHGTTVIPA"
observed_value = 2.28


We next turn to a different binder, shown below.
Query (binder): SJCP1531 (Schistosoma japonicum) (protein) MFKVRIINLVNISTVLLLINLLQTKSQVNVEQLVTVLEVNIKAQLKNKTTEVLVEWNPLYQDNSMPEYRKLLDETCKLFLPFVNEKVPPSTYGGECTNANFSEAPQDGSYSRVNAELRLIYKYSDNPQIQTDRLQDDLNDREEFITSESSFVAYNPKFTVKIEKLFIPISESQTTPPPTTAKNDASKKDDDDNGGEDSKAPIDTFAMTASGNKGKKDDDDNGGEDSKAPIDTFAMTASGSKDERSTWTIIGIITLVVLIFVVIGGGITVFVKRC ; field requested: glycan array binding signal (z-score)
2.8
